The measured values listed here are drawn from patent US7262340B2.

2β-Hydroxy GA product values, listed per item
Target: PcGA2ox1 (Phaseolus coccineus)
Construct: unnamed vector-encoded fusion partner (phagemid expression); made in house; host or cells: E. coli (crude cell lysate)
Sequence (Q9XG83 1-331): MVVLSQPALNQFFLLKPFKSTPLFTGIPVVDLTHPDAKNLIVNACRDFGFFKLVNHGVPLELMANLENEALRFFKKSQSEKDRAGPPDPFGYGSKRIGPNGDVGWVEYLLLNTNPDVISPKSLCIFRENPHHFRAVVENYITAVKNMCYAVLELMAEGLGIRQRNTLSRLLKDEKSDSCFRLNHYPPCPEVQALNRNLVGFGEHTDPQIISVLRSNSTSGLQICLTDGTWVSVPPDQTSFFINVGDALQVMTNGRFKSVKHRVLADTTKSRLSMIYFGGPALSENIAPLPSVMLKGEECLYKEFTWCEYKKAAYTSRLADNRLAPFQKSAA
Experiment: Incubation of recombinant GA 2-oxidase PcGA2ox1 (E. coli lysate) with 14C-labelled GA substrates
Assay type: biochemical
Conditions: E. coli cell lysate, 14C-labelled GA substrate and cofactors, 2.5 h, HPLC-radiomonitoring
Your answer should be a plain number; it is taken to be in % yield.

Reference set, count: 3
compound: C=C1C[C@]23C[C@H]1CC[C@H]2[C@@]12CC[C@H](O)[C@@](C)(C(=O)O1)[C@H]2[C@@H]3C(=O)O [GA4]
measure: 2β-Hydroxy GA product
unit annotation: % yield
recorded number: 83
//
compound: C=C1C[C@]23C[C@H]1CC[C@H]2[C@@]12CCC[C@@](C)(C(=O)O1)[C@H]2[C@@H]3C(=O)O [GA9]
measure: 2β-Hydroxy GA product
unit annotation: % yield
recorded number: 87
//
compound: C=C1C[C@]23C[C@@]1(O)CC[C@H]2[C@@]12CC[C@H](O)[C@@](C)(C(=O)O1)[C@H]2[C@@H]3C(=O)O [GA1]
measure: 2β-Hydroxy GA product
unit annotation: % yield
recorded number: 100

As a next step, examine the compound that follows.
Reported 2β-Hydroxy GA product ( C=C1C[C@]23C[C@@]1(O)CC[C@H]2[C@@]12CCC[C@@](C)(C(=O)O1)[C@H]2[C@@H]3C(=O)O [GA20] ) = 86
